This collection of values is drawn from PubChem BioAssay.

# assay-notes: growth suppression of yeast trafficking mutant, preliminary HTS, modulators of trafficking downstream of Golgi apparatus project, 1536-format plate, OD 615 nm (AID 637)
# experimental-parameters: yeast transport mutant growth, absorbance 615 nm, 18 h; hits give high values
Kindly supply the reported inhibition values for the records listed here.
One number for each entry, in %.

COc1ccc2nc(CC(C)(C)CC(=O)O)c[n+]([O-])c2c1; 5.08
CCCCn1nnnc1SCC(=O)N1CCN(C(=O)c2ccco2)CC1; 1.75
COCCNC(=O)CCc1nc(-c2ccccc2)no1; 2.7
COc1ccc(OC)c(N(CC(=O)N2CCN(c3cc(Cl)ccc3C)CC2)S(C)(=O)=O)c1; 0.48
CS(=O)(=O)N(CC(=O)NCc1ccccn1)c1ccc2c(c1)OCCO2; 4.35
CCCNC(=O)NC(C(=O)OC)C12CC3CC(CC(C3)C1)C2 (stereo not drawn); -1.5
CN(C)c1ccc(/C=C/c2ccncc2)cc1; 4
COCCOC(=O)/C=C1/NC(=O)CS1; 1.48
C=CCSc1nc(N)c(C(=O)Nc2ccccc2C)cc1C(N)=O; 4.67
CCN(CC)C(=O)CN(c1cc(Cl)ccc1OC)S(C)(=O)=O; -3.71

For every item in the list below, what is its measured inhibition?
1. CC(=O)NC(=O)NC1CSCC1OC(C)=O (stereo not drawn)
2. COc1ccccc1Cn1nnc2c(=O)[nH]c(C3CCN(C(=O)c4ccccc4Cl)CC3)nc21
3. Cc1cccc(Cc2nnc(NC(=O)c3cccc(S(=O)(=O)N4CCOCC4)c3)s2)c1
4. C=CCSc1nc2c(c(=O)[nH]c(=O)n2C)n1C(C)C
5. CCOC(=O)C1CCCN(C(=O)c2ccc(CS(=O)(=O)Cc3ccccc3C)o2)C1 (stereo not drawn)
6. O=C(OCC(=O)N1CCCC1)c1cncc(Br)c1

Output:
1: 0.48; 2: 0.48; 3: -5.33; 4: -1.64; 5: -8.23; 6: 5.33

* * *

# assay-notes: growth inhibitors of H69AR lung tumor, primary screen, human, duplicate replicates (AID 580);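 note: 100% = mean luminescence of untreated wells and 0% = no signal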
# experimental-parameters: H69AR lung tumor cells viability, ATP luminescence, 72 h; at 10 µM; hits give low values
Calls of active or inactive are those of the source.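 How the source made its calls: active means viability at or under a set limit in both replicates, limit being median viability minus 3 SD (cut at about 48% in these data, passing the limit was not always enough); inconclusive means at or under the limit in just one replicate; inactive means at or above the limit in both replicates.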
readout-type: viability

CC(=O)N1CCN(c2ccc(N=Cc3c(O)n(Cc4ccccc4)c(=O)[nH]c3=O)cc2)CC1; 94.6% (inactive)

For every item in the list below, what is its measured viability?
1. CCCOc1ccccc1NC(=O)c1c(-c2ccccc2)noc1C
2. Cn1c(C(=O)NCC2CCCO2)cc2c(=O)[nH]c3ccccc3c21 (stereo unspecified)
3. COc1ccc(C)cc1NC(=O)CN(Cc1nnc(-c2ccc(Cl)cc2)o1)C1CCCC1
4. CCN1CCN(CCCNC(=O)C2c3ccccc3C(=O)N(C)C2c2ccc(OC)cc2)CC1 (stereo unspecified)
5. CN(C)c1nc(Nc2ccc(Cl)cc2)nc(OCC#N)n1
6. CCCOc1nc(N)c(C#N)c(-c2ccccc2F)c1C#N
7. O=C1CCCC2=C1C1(CCCC1)N=C(Nc1nc3ccccc3s1)N2
8. Cc1ccc(C(=O)CCC2CCCC2=O)cc1 (stereo unspecified)

Output:
89% (inactive)
88.4% (inactive)
4.7% (active)
110% (inactive)
81.8% (inactive)
89.7% (inactive)
79.5% (inactive)
89% (inactive)

For every item in the list below, what is its measured viability?
1. CC1Cc2ccccc2N1C(=O)CSc1nnc2n1C(C)(C)Cc1ccccc1-2 (stereo unspecified)
2. Cc1ccc(NC(=O)C2CCCN(S(=O)(=O)c3cnc[nH]3)C2)cc1C (stereo unspecified)

Output:
1: 82.4% (inactive); 2: 100% (inactive)
